Tested on: DLD-1
method_description: Cytotoxicity against human DLD1 cells assessed as cell viability after 96 hrs by SRB assay
Assay type: functional, cell-based
particulars: Homo sapiens, DLD-1, 96 h
reported_metric: IC50 (µM)
Answer with a number only, understood to be in µM.

smiles_structure	IC50 / µM
C=C(C)[C@@H]1CC[C@]2([C@H](O)C#CCN3CCNCC3)CC[C@]3(C)[C@H](CC[C@@H]4[C@@]5(C)CC[C@H](OC(C)=O)C(C)(C)[C@@H]5CC[C@]43C)[C@@H]12.Cl	5.2
C=C(C)[C@@H]1CC[C@]2([C@H](O)C#CCN(CCC)CCC)CC[C@]3(C)[C@H](CC[C@@H]4[C@@]5(C)CC[C@H](OC(C)=O)C(C)(C)[C@@H]5CC[C@]43C)[C@@H]12	20.7
C#C[C@H](O)[C@]12CC[C@@H](C(=C)C)[C@@H]1[C@H]1CC[C@@H]3[C@@]4(C)CC[C@H](O)C(C)(C)[C@@H]4CC[C@@]3(C)[C@]1(C)CC2	21.9

Moving on to the next molecule.
Request - read-out IC50 | tested on DLD-1 | molecule "C=C(C)[C@@H]1CC[C@]2([C@H](O)C#CCN3CCOCC3)CC[C@]3(C)[C@H](CC[C@@H]4[C@@]5(C)CC[C@H](OC(C)=O)C(C)(C)[C@@H]5CC[C@]43C)[C@@H]12.Cl"
5
